- System: CH1
- protocol description: In vitro cytotoxicity against human ovarian carcinoma cell line CH1 using sulforhodamine B (SRB) assay
- Assay type: functional, cell-based
pIC50: −log10 of the molar value.
# maps each entry to its pIC50
assay metric: pIC50

molecule | recorded result
O=C(CCN1CCCCCC1)Nc1ccc2cc3ccc(NC(=O)CCN4CCCCCC4)cc3nc2c1 | 5.73
CN(C)CCC(=O)Nc1ccc2cc3ccc(NC(=O)CCN(C)C)cc3nc2c1 | 5.01
O=C(CCN1CCCCCCC1)Nc1ccc2cc3ccc(NC(=O)CCN4CCCCCCC4)cc3nc2c1 | 5.66
O=C(CCN1CCCCC1CO)Nc1ccc2cc3ccc(NC(=O)CCN4CCCCC4CO)cc3nc2c1 (stereo not given) | 4.98
O=C(CCN1CCC(O)CC1)Nc1ccc2cc3ccc(NC(=O)CCN4CCC(O)CC4)cc3nc2c1 | 4.82
CCN(CC)CCC(=O)Nc1ccc2cc3ccc(NC(=O)CCN(CC)CC)cc3nc2c1 | 5.61
CC1CCCN(CCC(=O)Nc2ccc3cc4ccc(NC(=O)CCN5CCCC(C)C5)cc4nc3c2)C1 (stereo not given) | 5.66
O=C(CCN1CCCCC1)Nc1ccc2cc3ccc(NC(=O)CCN4CCCCC4)cc3nc2c1 | 5.65
CC1(C)CC2CC(C)(CN2CCC(=O)Nc2ccc3cc4ccc(NC(=O)CCN5CC6(C)CC5CC(C)(C)C6)cc4nc3c2)C1 | 6.27
O=C(CCN1CCC(Cc2ccccc2)CC1)Nc1ccc2cc3ccc(NC(=O)CCN4CCC(Cc5ccccc5)CC4)cc3nc2c1 | 6.96
CC1CCN(CCC(=O)Nc2ccc3cc4ccc(NC(=O)CCN5CCC(C)CC5)cc4nc3c2)CC1 | 5.69
O=C(CCN1CCOCC1)Nc1ccc2cc3ccc(NC(=O)CCN4CCOCC4)cc3nc2c1 | 4.82
O=C(CCN1CCCC1)Nc1ccc2cc3ccc(NC(=O)CCN4CCCC4)cc3nc2c1 | 5.09
CC1CCCCN1CCC(=O)Nc1ccc2cc3ccc(NC(=O)CCN4CCCCC4C)cc3nc2c1 (stereo not given) | 5.64
CCC1CCCCN1CCC(=O)Nc1ccc2cc3ccc(NC(=O)CCN4CCCCC4CC)cc3nc2c1 (stereo not given) | 5.66
